Form field: CC50 (one value per entry).
assay-name: in vitro
assay-setup: CC50 B/Florida/04/2006, cytotoxicity in the B/Florida/04/2006 assay

Before answering, review these 4 worked examples.
>>> recorded_measurement("Cc1nn(Cc2nnc(SCc3ccccc3-c3ccsc3)o2)c(C)c1Br")
"> 50 µM"
>>> recorded_measurement("c1ccc(Cc2nnc(SCc3ccccc3-c3ccccc3)o2)cc1")
"> 50 µM"
>>> recorded_measurement("Cc1nn(Cc2nnc(N(C)Cc3ccccc3-c3ccccc3)o2)c(C)c1Br")
"> 50 µM"
>>> recorded_measurement("c1ccc(-c2nnc(SCc3ccccc3-c3ccccc3)o2)cc1")
"> 50 µM"

# input For the compound c1ccc(Nc2nnc(SCc3ccccc3-c3ccccc3)o2)cc1 , report CC50.
# output 6.53 µM

---

Form field: CC50 (one value per entry).
assay-name: in vitro
assay-setup: CC50 B/Florida/04/2006, cytotoxicity in the B/Florida/04/2006 assay

>>> recorded_measurement("Cc1nn(Cc2nnc(SCc3ccccc3-c3ccccc3)o2)c(C)c1Br")
"41.3 µM"
>>> recorded_measurement("[O-][S+](Cc1ccccc1-c1ccccc1)c1nnc(Nc2ccc(Br)cc2)o1 (stereo not drawn)")
"> 14.6 µM"
>>> recorded_measurement("Cc1ccc(-c2ccccc2CSc2nnc(Cn3nc(C)c(Br)c3C)o2)cc1")
"7.32 µM"

# input For the compound Cc1nn(Cc2nnc(SCc3cccc(-c4ccccc4)c3)o2)c(C)c1Br , report CC50.
# output > 50 µM

# input For the compound Cc1cccc(C)c1Nc1nnc(C(O)c2ccc(F)c(Cl)c2)o1 (stereo not drawn) , report CC50.
# output > 50 µM

# input For the compound Cc1nn(C(=O)c2ccc(Sc3ccccc3C(C)C)o2)c(C)c1Br , report CC50.
# output > 50 µM

# input For the compound Cc1nn(Cc2nnc(SCc3ccncc3-c3ccccc3)o2)c(C)c1Br , report CC50.
# output > 50 µM

# input For the compound Cc1cc(C)cc(Nc2nnc(SCc3ccccc3-c3ccccc3)o2)c1 , report CC50.
# output > 50 µM

# input For the compound CC(=O)N(Cc1ccccc1-c1ccccc1)c1nnc(Cn2nc(C)c(Br)c2C)o1 , report CC50.
# output 33.5 µM

---

System: A/California/07/2009 (H1N1)
assay-name: Antiviral activity (drug efficacy evaluation by concentration) against A/California/07/2009 (H1N1)
Assay type: cell-based, A type influenza virus
assay-setup: Influenza A virus, H1N1; read-out: EC50
measured-endpoint: log10 of EC50 (log10 of the value in µM)
Field: value | Transform: log10 | Quantity: EC50 | Unit: µM

>>> recorded_measurement("Brc1ccc(Cc2nnc(/C=C/c3cccc4ccccc34)o2)cc1")
1.43
>>> recorded_measurement("Clc1ccc(/C=C/c2nnc(Cc3cccc(Br)c3)o2)c(Cl)c1")
0.67
>>> recorded_measurement("CC(C)c1ccccc1CCc1nnc(Cc2cccc(Cl)c2)o1")
0.23
>>> recorded_measurement("COC(c1ccccc1)c1nnc(SCc2ccccc2-c2ccccc2)o1 (stereo not drawn)")
0.64

# input Recall the reported log10 of EC50 of Cc1ccccc1C(C)Cc1nnc(Cc2ccc(Br)cc2)o1 (stereo not drawn) on A/California/07/2009 (H1N1) and write it down.
# output 1.51

# input Recall the reported log10 of EC50 of Cc1ccccc1/C=C/c1nnc(Cc2ccc(Br)cc2)o1 on A/California/07/2009 (H1N1) and write it down.
# output 0.30

# input Recall the reported log10 of EC50 of Fc1ccc(/C=C/c2nnc(Cc3cccc(Cl)c3)o2)c(Cl)c1 on A/California/07/2009 (H1N1) and write it down.
# output -0.20

# input Recall the reported log10 of EC50 of Cc1cc(C(F)(F)F)ccc1/C=C/c1nnc(Cc2cccc(Br)c2)o1 on A/California/07/2009 (H1N1) and write it down.
# output 1.55

# credit: patent US11149033B2
